Listed below: IC50 values for each entry.
target_or_test_system: GLS1 (purified recombinant human GAC) (Homo sapiens)
Sequence (O94925 55-598 isoform O94925-3 limits assumed): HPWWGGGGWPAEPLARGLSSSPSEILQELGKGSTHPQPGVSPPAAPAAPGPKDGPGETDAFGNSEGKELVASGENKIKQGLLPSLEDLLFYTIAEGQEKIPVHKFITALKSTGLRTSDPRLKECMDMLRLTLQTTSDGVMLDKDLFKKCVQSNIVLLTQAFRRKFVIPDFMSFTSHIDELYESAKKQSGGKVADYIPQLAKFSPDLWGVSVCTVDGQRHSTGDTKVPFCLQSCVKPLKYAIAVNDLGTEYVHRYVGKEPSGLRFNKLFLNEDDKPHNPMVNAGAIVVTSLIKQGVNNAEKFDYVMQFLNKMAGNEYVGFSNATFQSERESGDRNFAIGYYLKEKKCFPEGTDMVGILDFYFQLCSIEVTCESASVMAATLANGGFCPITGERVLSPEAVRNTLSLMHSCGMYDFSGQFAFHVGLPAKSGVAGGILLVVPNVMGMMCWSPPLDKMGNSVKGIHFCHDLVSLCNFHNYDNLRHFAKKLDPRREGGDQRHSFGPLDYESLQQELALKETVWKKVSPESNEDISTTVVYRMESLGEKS
protocol: GLS1 enzymatic activity assay (dual-coupled, Amplex UltraRed/resorufin)
Type: biochemical

| compound | IC50 |
| --- | --- |
| O=C(Cc1ccccn1)Nc1ccn(CCC(F)Cn2cc(C(=O)NCc3cccc(C(F)(F)F)c3)nn2)c(=O)c1 (stereo not shown) [Example 183] | < 100 nM |
| CC(C)(CO)CNC(=O)c1cn(CC(F)CCn2ccc(NC(=O)CN3CCN(C(=O)OC(C)(C)C)CC3)cc2=O)nn1 (stereo not shown) [Example 406] | 500 to 5000 nM |
| CC(C)CNC(=O)c1cn(CC(F)CCn2ccc(NC(=O)CN3CCN(C(=O)OC(C)(C)C)CC3)cc2=O)nn1 (stereo not shown) [Example 404] | 100 to 500 nM |
| C[C@H](C(=O)Nc1ccn(CCC(F)Cn2cc(C(=O)NCc3cc(C(F)(F)F)ccn3)nn2)c(=O)c1F)c1ccccc1 (stereo partly shown) [Example 343] | < 100 nM |
| CC(C)(C)OC(=O)N1CCN(CC(=O)Nc2ccn(CCC(F)Cn3cc(C(=O)NCc4cccc(OC(F)(F)F)c4)nn3)c(=O)c2F)CC1 (stereo not shown) [Example 296] | < 100 nM |
| CCN1CCC(CC(=O)Nc2ccn(CCCCn3cc(C(=O)NCc4cccc(C(F)(F)F)c4)nn3)c(=O)c2)CC1 [Example 156] | 100 to 500 nM |
| O=C(CC1CCC1)Nc1ccn(CCC(F)Cn2cc(C(=O)NCc3cncc(C(F)(F)F)c3)nn2)c(=O)c1F (stereo not shown) [Example 350] | < 100 nM |
